Test system: RS4; 11 with G101V mutation
Assay: In vitro anti-proliferation assay (ATPlite luminescence) in BCL-2-dependent ALL cell line RS4;11 with G101V mutation
Type: cell-based
Conditions: cellular anti-proliferative IC50, about 72 hours, medium with 10% FBS, ATPlite; read-out: RS411-G101V IC50
Overview of reported IC50 across a group of compounds:
// note: answer is a bare numeric in µM

Answered examples (6):
COc1c(CN2CCN(C3CC4(CCN(c5ccc(C(=O)NS(=O)(=O)c6ccc(NCC7CCC(C)(O)CC7)c([N+](=O)[O-])c6)c(N6c7cc8cc[nH]c8nc7O[C@H]7COCC[C@@H]76)c5)CC4)C3)[C@@H](c3ccccc3OC(C)C)C2)ccnc1N1CCOCC1 (stereo partly shown) ... 0.0198
CC(C)Oc1ccccc1[C@@H]1CN(C2CCC(C)(C)CC2)CCN1C1CC2(CCN(c3ccc(C(=O)NS(=O)(=O)c4cc5c(c([N+](=O)[O-])c4)N[C@H](C4CCOCC4)CO5)c(N4c5cc6cc[nH]c6nc5O[C@H]5COCC[C@@H]54)c3)CC2)C1 (stereo partly shown) ... 0.0626
Cc1ccccc1[C@@H]1CN(Cc2cnc(N3CCOC[C@@H]3C)c(F)c2)CCN1C1CC2(CCN(c3ccc(C(=O)NS(=O)(=O)c4cc5c(c([N+](=O)[O-])c4)N[C@H](C4CCOCC4)CO5)c(N4c5cc6cc[nH]c6nc5O[C@H]5COCC[C@@H]54)c3)CC2)C1 ... 0.0368
Cc1ccccc1[C@@H]1CN(Cc2ccc(F)c(F)c2)CCN1C1CC2(CCN(c3ccc(C(=O)NS(=O)(=O)c4cc5c(c([N+](=O)[O-])c4)N[C@@H](C4CCOCC4)CO5)c(N4c5cc6cc[nH]c6nc5O[C@H]5COCC[C@@H]54)c3)CC2)C1 ... 0.0758
CC(C)c1ccccc1[C@H]1CN(Cc2ccc(F)c(F)c2)CCN1C1CC2(CCN(c3ccc(C(=O)NS(=O)(=O)c4ccc(NCC5CCOCC5)c([N+](=O)[O-])c4)c(N4c5cc6cc[nH]c6nc5O[C@H]5COCC[C@@H]54)c3)CC2)C1 ... 0.585
Cc1ccccc1[C@@H]1CN(Cc2cnc(N3CCOCC3)c(OC(C)C)c2)CCN1C1CC2(CCN(c3ccc(C(=O)NS(=O)(=O)c4ccc(NCC5CCC(C)(O)CC5)c([N+](=O)[O-])c4)c(N4c5cc6cc[nH]c6nc5O[C@H]5COCC[C@@H]54)c3)CC2)C1 (stereo partly shown) ... 0.0061

Here's the next entry for you.
[ask] Find the recorded IC50 belonging to `CC(C)Oc1ccccc1[C@@H]1CN(c2ccccc2)CCN1C1CC2(CCN(c3ccc(C(=O)NS(=O)(=O)c4cc5c(c([N+](=O)[O-])c4)N[C@H](C4CCOCC4)CO5)c(N4c5cc6cc[nH]c6nc5O[C@H]5COCC[C@@H]54)c3)CC2)C1` and report it.
[reply] 0.24

###

Tested on: RS4; 11 with G101V mutation
Experiment: In vitro anti-proliferation assay (ATPlite luminescence) in BCL-2-dependent ALL cell line RS4;11 with G101V mutation
Format: cell-based
Details: Homo sapiens, RS4-11, 72 h; read-out: RS411-G101V IC50
endpoint name: IC50 (nM)
Answer in nM, number only, no unit symbol.

Check out these entries, answers already filled in.
COc1cc(CN2CCN(C3CC4(CCN(c5ccc(C(=O)NS(=O)(=O)c6cc7c(c([N+](=O)[O-])c6)N[C@H](C6CCOCC6)CO7)c(N6c7cc8cc[nH]c8nc7O[C@H]7COCC[C@@H]76)c5)CC4)C3)[C@H](c3ccccc3C)C2)cnc1N1CCOCC1 ... 7
CC(C)Oc1ccccc1[C@@H]1CN([C@H]2COCc3cc(F)c(F)cc32)CCN1C1CC2(CCN(c3ccc(C(=O)NS(=O)(=O)c4cc5c(c([N+](=O)[O-])c4)N[C@H](C4CCOCC4)CO5)c(N4c5cc6cc[nH]c6nc5O[C@H]5COCC[C@@H]54)c3)CC2)C1 ... 30.6

Moving on to the next molecule.
[ask] // query IC50 value for entry `CC(C)Oc1ccccc1[C@@H]1CN(Cc2cccnc2)CCN1C1CC2(CCN(c3ccc(C(=O)NS(=O)(=O)c4cc5c(c([N+](=O)[O-])c4)N[C@H](C4CCOCC4)CO5)c(N4c5cc6cc[nH]c6nc5O[C@H]5COCC[C@@H]54)c3)CC2)C1`
[reply] 10.2
